B1: Steroid Delta-isomerase, P07445 (parent)
chain: MNLPTAQEVQGLMARYIELVDVGDIEAIVQMYADDATVEDPFGQPPIHGREQIAAFYRQGLGGGKVRACLTGPVRASHNGCGAMPFRVEMVWNGQPCALDVIDVMRFDEHGRIQTMQAYWSEVNLSVREPQ

- Variants of: B1
- condition label: Pseudomonas putida; pH 7; 25 °C; Urea; CD; Sodium phosphate 25 mM; reversible: yes; structure 1OH0; whole UniProt chain shown
Consider the following variants; for each one, report its denaturant m value.
Answers are plain numbers, in kcal/mol/M.

| mutation descriptor | value units | denaturant m value |
| --- | --- | --- |
| Y32F V101L | kcal/mol/M | 2.52 |
| Y57F V101L | kcal/mol/M | 2.31 |
| Y32F | kcal/mol/M | 3.23 |
| Y32F Y57F | kcal/mol/M | 3.05 |
| Y57F | kcal/mol/M | 2.98 |

Look up denaturant m value for the entries below, preserving their order.
1. Y16F
2. V101L

output:
1: 3.1; 2: 3.32

Cited source for all entries: FireProtDB (doi:10.1021/bi992119u)
